The values you see were collected from patent US11059789B2.

molecular target: ROCK2 (Homo sapiens (Human), UniProt O75116)
Sequence (O75116 whole entry, species assumed): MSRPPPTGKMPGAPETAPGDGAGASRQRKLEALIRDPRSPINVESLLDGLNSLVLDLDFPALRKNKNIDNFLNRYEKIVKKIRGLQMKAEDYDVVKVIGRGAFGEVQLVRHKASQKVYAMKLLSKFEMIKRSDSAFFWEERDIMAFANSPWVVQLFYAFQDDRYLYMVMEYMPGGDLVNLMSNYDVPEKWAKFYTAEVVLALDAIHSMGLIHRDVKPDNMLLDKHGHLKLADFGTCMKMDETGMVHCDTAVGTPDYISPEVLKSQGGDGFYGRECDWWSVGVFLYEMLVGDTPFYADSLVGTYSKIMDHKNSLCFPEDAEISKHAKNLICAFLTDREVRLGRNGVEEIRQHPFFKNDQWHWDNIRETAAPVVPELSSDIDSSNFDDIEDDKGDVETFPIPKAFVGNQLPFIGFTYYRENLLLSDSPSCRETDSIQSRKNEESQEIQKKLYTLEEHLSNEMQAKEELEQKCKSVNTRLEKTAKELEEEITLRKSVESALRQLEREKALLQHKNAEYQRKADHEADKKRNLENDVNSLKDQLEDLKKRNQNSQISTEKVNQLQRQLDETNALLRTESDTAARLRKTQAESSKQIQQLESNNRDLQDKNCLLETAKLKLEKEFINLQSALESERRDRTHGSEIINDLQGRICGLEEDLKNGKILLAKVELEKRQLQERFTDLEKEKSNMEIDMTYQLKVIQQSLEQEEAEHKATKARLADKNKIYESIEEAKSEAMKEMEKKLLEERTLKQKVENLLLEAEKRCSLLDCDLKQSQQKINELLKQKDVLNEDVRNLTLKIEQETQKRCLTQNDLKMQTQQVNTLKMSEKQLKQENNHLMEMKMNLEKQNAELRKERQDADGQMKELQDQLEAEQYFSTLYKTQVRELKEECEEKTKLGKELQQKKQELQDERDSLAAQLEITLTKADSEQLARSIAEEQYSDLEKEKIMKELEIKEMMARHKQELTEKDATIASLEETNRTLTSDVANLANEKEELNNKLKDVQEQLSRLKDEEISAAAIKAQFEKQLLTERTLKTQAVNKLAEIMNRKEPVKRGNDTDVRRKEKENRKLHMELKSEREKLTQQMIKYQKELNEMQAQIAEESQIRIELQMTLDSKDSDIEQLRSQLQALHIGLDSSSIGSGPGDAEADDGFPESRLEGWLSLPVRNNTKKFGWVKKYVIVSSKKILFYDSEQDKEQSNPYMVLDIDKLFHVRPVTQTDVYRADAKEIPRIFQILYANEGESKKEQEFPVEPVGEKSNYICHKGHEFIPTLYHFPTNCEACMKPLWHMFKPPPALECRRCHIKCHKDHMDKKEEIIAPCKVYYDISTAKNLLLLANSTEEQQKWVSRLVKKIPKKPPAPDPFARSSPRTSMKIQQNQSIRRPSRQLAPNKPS
Structures can show the parent of a compound that is named as a salt.

{"Compound": "C[C@@H]1C[C@H]2[C@@H]3CCC4=CC(=O)C=C[C@]4(C)[C@@]3(F)[C@@H](O)C[C@]2(C)[C@@]1(O)C(=O)COC(=O)C1CC1C(=O)OCc1ccc([C@@H](CN)C(=O)Nc2ccc3cnccc3c2)cc1 (stereo partly drawn) [Example 27]", "Unit Text": "nM", "IC50": 13}
{"Compound": "C[C@@H]1C[C@H]2[C@@H]3CCC4=CC(=O)C=C[C@]4(C)[C@@]3(F)[C@@H](O)C[C@]2(C)[C@@]1(O)C(=O)COC(=O)CCC(=O)OCc1ccc([C@@H](CN)C(=O)Nc2ccc3cnccc3c2)cc1 [Example 25]", "Unit Text": "nM", "IC50": 17}
{"Compound": "C[C@@H]1C[C@H]2[C@@H]3CCC4=CC(=O)C=C[C@]4(C)[C@@]3(F)[C@@H](O)C[C@]2(C)[C@@]1(O)C(=O)COC(=O)c1ccc(C(=O)OCc2ccc([C@@H](CN)C(=O)Nc3ccc4cnccc4c3)cc2)cc1 [Example 66, dihydrochloride]", "Unit Text": "nM", "IC50": 26}

* * *

system: PTM; test: PTM assay; format: cell-based; settings: HCl salt
Structures can show the parent of a compound that is named as a salt.
Measured Attribute: IC50

{"Compound": "C[C@@H]1C[C@H]2[C@@H]3CCC4=CC(=O)C=C[C@]4(C)[C@@]3(F)[C@@H](O)C[C@]2(C)[C@@]1(O)C(=O)COC(=O)C[C@H](N)C(=O)OCc1ccc([C@@H](CN)C(=O)Nc2ccc3cnccc3c2)cc1 [Example 83, trihydrochloride]", "Observed Measurement": "43 nM"}
{"Compound": "C[C@@H]1C[C@H]2[C@@H]3CCC4=CC(=O)C=C[C@]4(C)[C@@]3(F)[C@@H](O)C[C@]2(C)[C@@]1(O)C(=O)COC(=O)C1CC1C(=O)OCc1ccc([C@@H](CN)C(=O)Nc2ccc3cnccc3c2)cc1 (stereo partly shown)", "Observed Measurement": "145 nM"}
{"Compound": "C[C@]12C=CC(=O)C=C1CC[C@@H]1[C@@H]2[C@@H](O)C[C@@]2(C)[C@H]1CC[C@]2(O)C(=O)COC(=O)C1CC1C(=O)OCc1ccc([C@@H](CN)C(=O)Nc2ccc3cnccc3c2)cc1 (stereo partly shown)", "Observed Measurement": "706 nM"}
{"Compound": "CC1(C)O[C@@H]2C[C@H]3[C@@H]4C[C@H](F)C5=CC(=O)C=C[C@]5(C)[C@@]4(F)[C@@H](O)C[C@]3(C)[C@]2(C(=O)COC(=O)CCC(=O)OCc2ccc([C@@H](CN)C(=O)Nc3ccc4cnccc4c3)cc2)O1", "Observed Measurement": "217 nM"}

* * *

Recorded measurements of pIC50, one per entry
Target: IKKb (Homo sapiens (Human), UniProt O14920)
Sequence (O14920 whole entry, species assumed): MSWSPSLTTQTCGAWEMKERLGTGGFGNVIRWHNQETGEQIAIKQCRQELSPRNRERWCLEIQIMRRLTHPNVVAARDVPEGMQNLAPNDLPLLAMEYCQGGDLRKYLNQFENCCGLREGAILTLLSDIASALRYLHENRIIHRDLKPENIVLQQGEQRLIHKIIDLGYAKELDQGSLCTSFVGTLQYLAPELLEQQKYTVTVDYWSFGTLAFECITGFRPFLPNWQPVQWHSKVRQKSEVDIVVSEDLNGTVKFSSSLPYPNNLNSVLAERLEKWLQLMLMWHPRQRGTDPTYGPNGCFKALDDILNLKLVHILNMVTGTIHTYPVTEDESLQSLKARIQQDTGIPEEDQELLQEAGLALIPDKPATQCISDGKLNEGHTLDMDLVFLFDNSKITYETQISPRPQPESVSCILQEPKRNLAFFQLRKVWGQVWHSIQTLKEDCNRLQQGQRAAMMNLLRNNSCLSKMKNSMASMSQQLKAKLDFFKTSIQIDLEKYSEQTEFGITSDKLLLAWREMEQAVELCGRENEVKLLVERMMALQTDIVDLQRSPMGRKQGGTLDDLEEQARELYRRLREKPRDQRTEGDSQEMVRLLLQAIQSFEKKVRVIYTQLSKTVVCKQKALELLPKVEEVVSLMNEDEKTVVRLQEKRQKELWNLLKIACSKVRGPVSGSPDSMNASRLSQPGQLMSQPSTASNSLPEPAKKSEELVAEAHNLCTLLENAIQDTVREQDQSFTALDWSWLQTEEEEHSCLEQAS
Assay: Kinase assay IKKb
Format: biochemical
Conditions: HCl salt
Protocol: Inhibition of various kinases was assayed.
pIC50: −log10 of the molar value.
Measured Attribute: pIC50

{"Compound": "C[C@]12C=CC(=O)C=C1CC[C@@H]1[C@@H]2[C@@H](O)C[C@@]2(C)[C@H]1CC[C@]2(O)C(=O)COC(=O)C1CC1C(=O)OCc1ccc([C@@H](CN)C(=O)Nc2ccc3cnccc3c2)cc1 (stereo partly drawn)", "System": "IKKb (Homo sapiens (Human), UniProt O14920)", "Observed Measurement": 4.30}
{"Compound": "C[C@@H]1C[C@H]2[C@@H]3CCC4=CC(=O)C=C[C@]4(C)[C@@]3(F)[C@@H](O)C[C@]2(C)[C@@]1(O)C(=O)COC(=O)C1CC1C(=O)OCc1ccc([C@@H](CN)C(=O)Nc2ccc3cnccc3c2)cc1 (stereo partly drawn)", "System": "IKKb (Homo sapiens (Human), UniProt O14920)", "Observed Measurement": 4.33}
{"Compound": "CC1(C)O[C@@H]2C[C@H]3[C@@H]4C[C@H](F)C5=CC(=O)C=C[C@]5(C)[C@@]4(F)[C@@H](O)C[C@]3(C)[C@]2(C(=O)COC(=O)CCC(=O)OCc2ccc([C@@H](CN)C(=O)Nc3ccc4cnccc4c3)cc2)O1", "System": "IKKb (Homo sapiens (Human), UniProt O14920)", "Observed Measurement": 4.48}
